Assay: collision cross section in nitrogen (drift tube, single-field); higher = larger gas-phase ion size;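 note: chemical standards at 10 µM analysed by drift tube IMS-QTOF MS in about 3.95 torr nitrogen, mean of duplicate injections differing ≤1%, mass error below 10 ppm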
Conditions: ion type: [M+Na]; ion source: ESI; ion mode: Positive
Where a name gives a salt, the structure may show the parent alone.
Listing: collision cross section in nitrogen of selected compounds
Field format: number, assumed Å², no unit text.

Use these answered entries as a reference point.
[
  {
    "Compound": "N=C(NCCCCCCNC(=N)NC(=N)Nc1ccc(Cl)cc1)NC(=N)Nc1ccc(Cl)cc1 [Chlorhexidine dihydrochloride]",
    "Assay result": 227.5
  },
  {
    "Compound": "COCCOC(=O)c1ccccc1C(=O)OCCOC [Di(2-methoxyethyl) phthalate]",
    "Assay result": 161.7
  },
  {
    "Compound": "CCOC(=O)NCCOc1ccc(Oc2ccccc2)cc1",
    "Assay result": 184.6
  },
  {
    "Compound": "O=C1OC2(c3ccc(O)cc3Oc3cc(O)ccc32)c2ccccc21 [Fluorescein sodium]",
    "Assay result": 189.1
  },
  {
    "Compound": "CCOC(=O)C(C)Oc1ccc(Oc2nc3ccc(Cl)cc3o2)cc1 (stereo unspecified)",
    "Assay result": 189.1
  }
]

Task: Return collision cross section in nitrogen (reported value) for this compound: `OCCN(CCO)CCN(CCO)CCO`
Result: 151.1

Task: Look up and state reported collision cross section in nitrogen for CCCCCC(C)OC(=O)COc1ccc(Cl)c2cccnc12 (stereo unspecified)
Result: 195.1

Task: Supply reported collision cross section in nitrogen belonging to this compound: Cc1ccc(OP(=O)(Oc2ccc(C)cc2)Oc2ccc(C)cc2)cc1 [Tris(4-methylphenyl) phosphate]
Result: 200.1

Task: Give reported collision cross section in nitrogen value for CCOC(=O)CP(=O)(OCC)OCC [Triethyl phosphonoacetate]
Result: 155

Task: Consider the compound `CS(=O)(=O)c1cc(C(F)(F)F)ccc1C(=O)c1cnoc1C1CC1` and give its recorded collision cross section in nitrogen.
Result: 185.2

Task: Answer with the recorded collision cross section in nitrogen of `CCOc1ccc(N=Nc2ccc(C=Cc3ccc(N=Nc4ccc(OCC)cc4)cc3S(=O)(=O)O)c(S(=O)(=O)O)c2)cc1` only.
Result: 286.9

Task: Fill in collision cross section in nitrogen for record `CC(C)Oc1cccc(NC(=O)c2ccccc2C(F)(F)F)c1`
Result: 183.5

Task: Return value of collision cross section in nitrogen for input Oc1ccc(C2(c3ccc(O)c(C4CCCCC4)c3)CCCCC2)cc1C1CCCCC1 [1,1-Bis(3-cyclohexyl-4-hydroxyphenyl)cyclohexane] , no commentary.
Result: 218.4

Task: Give collision cross section in nitrogen for C=C(C)C(=O)OCCOC(=O)CC(C)=O [2-(Methacryloyloxy)ethyl acetoacetate]
Result: 147.6

Task: Look up collision cross section in nitrogen of `O=C(O)c1ccccc1-n1cc(C(=O)O)c(=O)c2cc(Nc3c(F)cc(F)cc3Cl)c(Cl)cc21` and report it.
Result: 223.5

Task: Let me know recorded collision cross section in nitrogen for CCCCCCCOC(=O)c1ccccc1C(=O)OCCCCCCC [Diheptyl phthalate] , thanks.
Result: 209.9

====

Experiment: collision cross section in nitrogen (drift tube, single-field); higher = larger gas-phase ion size
Details: ion type: [M+Na]; ion source: ESI; ion mode: Positive
Structures can show the parent of a compound that is named as a salt.
Measured attribute: collision cross section in nitrogen (Å²)
Just the number in Å², nothing appended.

Please review the following examples before continuing.
[
  {
    "Molecule": "CC(C)(COC(=O)c1ccccc1)COC(=O)c1ccccc1 [Neopentyl glycol dibenzoate]",
    "Assay result": 180.7
  },
  {
    "Molecule": "CN(C)c1ccc(C(=O)c2ccc(N(C)C)cc2)cc1",
    "Assay result": 175.8
  },
  {
    "Molecule": "CC(O)COC(C)COC(C)CO (centres undefined)",
    "Assay result": 144.9
  },
  {
    "Molecule": "COc1ccc(OC)c(C(O)CNC(=O)CN)c1 (centres undefined) [Midodrine hydrochloride]",
    "Assay result": 164.3
  },
  {
    "Molecule": "CCCOc1ccc(S(=O)(=O)N2CCN(CC)CC2)cc1-c1nc2c(CC)n(Cc3ccccn3)nc2c(=O)[nH]1",
    "Assay result": 256.9
  }
]

Task: Give collision cross section in nitrogen for the following molecule: `CCCCCCCCCCCC(=O)N(C)CC(=O)O`
Result: 175.7

Task: Identify collision cross section in nitrogen associated with the molecule `COc1c2occc2c(OC)c2c(=O)cc(C)oc12`
Result: 167.5

Task: Given the molecule CCc1ccc(CCOc2ccc(CC3SC(=O)NC3=O)cc2)nc1 (centres undefined) [Pioglitazone hydrochloride] , write its reported collision cross section in nitrogen.
Result: 186.7

Task: Recall and state the measured collision cross section in nitrogen for CC(=O)CC(=O)Nc1ccc(C)cc1C [N-(2,4-Dimethylphenyl)-3-oxobutanamide] .
Result: 160.6
